Biological target: neuronal nicotinic acetylcholine receptors (Rattus norvegicus, UniProt P09483+P12390)
Construct: crude synaptic membrane preparations from whole rat brain; from tissue; host or cells: whole rat brain, crude synaptic membranes
Sequence (P09483 31-630): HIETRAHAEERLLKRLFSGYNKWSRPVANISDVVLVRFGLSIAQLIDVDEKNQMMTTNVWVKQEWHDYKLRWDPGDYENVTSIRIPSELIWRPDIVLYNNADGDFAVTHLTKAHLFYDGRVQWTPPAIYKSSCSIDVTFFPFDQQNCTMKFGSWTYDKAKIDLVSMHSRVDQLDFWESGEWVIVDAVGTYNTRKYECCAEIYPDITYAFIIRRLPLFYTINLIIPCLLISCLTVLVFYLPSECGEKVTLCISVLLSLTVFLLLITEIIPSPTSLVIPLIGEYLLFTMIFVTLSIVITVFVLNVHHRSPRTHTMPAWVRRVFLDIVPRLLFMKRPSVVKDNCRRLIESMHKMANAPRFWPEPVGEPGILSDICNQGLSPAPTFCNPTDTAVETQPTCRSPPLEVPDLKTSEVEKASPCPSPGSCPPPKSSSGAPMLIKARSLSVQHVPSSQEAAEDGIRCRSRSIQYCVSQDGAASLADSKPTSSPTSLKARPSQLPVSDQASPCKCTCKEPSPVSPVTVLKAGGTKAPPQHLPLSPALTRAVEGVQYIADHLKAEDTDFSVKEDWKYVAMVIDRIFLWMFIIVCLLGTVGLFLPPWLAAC
Sequence (P12390 25-500): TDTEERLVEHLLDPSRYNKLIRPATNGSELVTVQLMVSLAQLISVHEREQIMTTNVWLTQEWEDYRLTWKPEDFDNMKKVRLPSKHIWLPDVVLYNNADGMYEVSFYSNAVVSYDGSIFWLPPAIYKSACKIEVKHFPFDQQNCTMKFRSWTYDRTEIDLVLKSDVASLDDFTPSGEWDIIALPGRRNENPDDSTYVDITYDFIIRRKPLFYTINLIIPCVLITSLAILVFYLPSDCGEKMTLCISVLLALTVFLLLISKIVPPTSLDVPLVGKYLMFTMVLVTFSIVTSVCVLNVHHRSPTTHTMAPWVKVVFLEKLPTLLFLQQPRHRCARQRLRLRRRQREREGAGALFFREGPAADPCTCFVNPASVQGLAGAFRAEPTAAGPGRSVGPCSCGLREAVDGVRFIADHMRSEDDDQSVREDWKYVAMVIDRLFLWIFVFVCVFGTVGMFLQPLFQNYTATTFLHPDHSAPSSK
Assay: [3H]-cytisine binding to neuronal nicotinic acetylcholine receptors, crude synaptic membranes from whole rat brain
Property label: pKi
Value format note: pKi is -log10 of concentration (mol/L); just state the number.

Please report the recorded pKi for Oc1cncc(N2C[C@@H]3C[C@H]2CN3)c1 [Example 22, 4-methylbenzenesulfonate] .
8.39

Please report the recorded pKi for N#Cc1cncc(N2C[C@H]3C[C@@H]2CN3)c1 [Example 44, 4-methylbenzenesulfonate] .
10.52

Please report the recorded pKi for Clc1ccc(N2C[C@H]3C[C@@H]2CN3)cn1 [Example 15, 4-methylbenzenesulfonate] .
11.00

Please report the recorded pKi for c1cncc(N2CC3CNCC2C3)c1 (centres unmarked) .
8.66

Please report the recorded pKi for c1ccc(COc2cncc(N3C[C@@H]4C[C@H]3CN4)c2)cc1 [Example 21, 4-methylbenzenesulfonate] .
9.48

Please report the recorded pKi for Oc1cc(N2C[C@@H]3C[C@H]2CN3)cnc1Cl [Example 45, 4-methylbenzenesulfonate] .
8.80

Please report the recorded pKi for Cc1cc(N2C[C@@H]3C[C@H]2CN3)nnc1Cl [Example 4, bis(4-methylbenzenesulfonate)] .
8.42
